Overview of recorded log10(Ki) for various compounds
TESTED ON: Adrenergic receptor alpha-2 (Rattus norvegicus, UniProt P22086+P19328+P22909)
ASSAY NAME: Inhibition of [3H]clonidine binding to rat Alpha2 adrenoceptor
Format: protein assay
All values: log10 Ki [µM].

These recorded examples may help you get a feel for the data.
O=S(=O)(c1ccc2c(c1)CNC(CF)C2)N1CCCCC1 (stereo unspecified)
2.91
O=S(=O)(Nc1ccc(Cl)cc1)c1ccc2c(c1)CNC(CF)C2 (stereo unspecified)
2.15
O=S(=O)(NCCCC(F)(F)F)c1ccc2c(c1)CNC(CF)C2 (stereo unspecified)
2.54
CC(C)NS(=O)(=O)c1ccc2c(c1)CNC(CF)C2 (stereo unspecified)
2.76
O=S(=O)(NCC(F)(F)F)c1ccc2c(c1)CNC(CF)C2 (stereo unspecified)
3.08

Form: compound = CCCCNS(=O)(=O)c1ccc2c(c1)CNC(CF)C2 (stereo unspecified) ; log10(Ki) = 2.41

Form: compound = O=S(=O)(NC12CC3CC(CC(C3)C1)C2)c1ccc2c(c1)CNC(CF)C2 (stereo unspecified) ; log10(Ki) = 2.00

----------
TESTED ON: Adrenergic receptor alpha-2 (Rattus norvegicus, UniProt P22086+P19328+P22909)
ASSAY NAME: Inhibition of [3H]clonidine binding to rat Alpha2 adrenoceptor
Format: protein assay
Category | rule: reported Ki within range, see lower segment (below 90 µM), middle segment (90 µM to below 400 µM), upper segment (400 µM or more)

Example entries and their recorded answers appear below.
O=[N+]([O-])c1cccc(NS(=O)(=O)c2ccc3c(c2)CNC(CF)C3)c1 (centres undefined)
upper segment
O=S(=O)(Nc1cccc(Cl)c1)c1ccc2c(c1)CNC(CF)C2 (centres undefined)
upper segment
Clc1ccc2c(c1Cl)CNCC2
lower segment
O=S(=O)(Nc1ccc(F)cc1)c1ccc2c(c1)CNC(CF)C2 (centres undefined)
lower segment
O=S(=O)(Nc1ccc(O)cc1)c1ccc2c(c1)CNC(CF)C2 (centres undefined)
middle segment

Hey, which category is O=S(=O)(NCCC(F)(F)F)c1ccc2c(c1)CNC(CF)C2 (centres undefined) in, do you know?
upper segment

Hey, which category is O=S(=O)(c1ccc2c(c1)CNC(CF)C2)N1CCSCC1 (centres undefined) in, do you know?
middle segment

Hey, which category is CCOCCNS(=O)(=O)c1ccc2c(c1)CNC(CF)C2 (centres undefined) in, do you know?
upper segment

Hey, which category is COCCCNS(=O)(=O)c1ccc2c(c1)CNC(CF)C2 (centres undefined) in, do you know?
upper segment

Hey, which category is CCNS(=O)(=O)c1ccc2c(c1)CNC(CF)C2 (centres undefined) in, do you know?
upper segment

----------
TESTED ON: Adrenergic receptor alpha-2 (Rattus norvegicus, UniProt P22086+P19328+P22909)
Sequence (P22086 whole entry): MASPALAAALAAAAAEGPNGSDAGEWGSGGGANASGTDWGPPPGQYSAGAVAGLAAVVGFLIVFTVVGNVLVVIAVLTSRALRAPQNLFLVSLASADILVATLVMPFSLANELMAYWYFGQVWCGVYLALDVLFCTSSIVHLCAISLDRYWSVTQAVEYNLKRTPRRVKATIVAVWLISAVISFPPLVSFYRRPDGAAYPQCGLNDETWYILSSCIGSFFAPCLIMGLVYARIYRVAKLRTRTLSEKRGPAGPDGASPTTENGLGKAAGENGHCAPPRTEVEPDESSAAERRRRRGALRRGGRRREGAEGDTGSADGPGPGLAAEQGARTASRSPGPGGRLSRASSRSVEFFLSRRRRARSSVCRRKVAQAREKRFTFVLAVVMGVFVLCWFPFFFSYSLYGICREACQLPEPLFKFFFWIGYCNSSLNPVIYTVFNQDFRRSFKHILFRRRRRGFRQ
Sequence (P19328 whole entry): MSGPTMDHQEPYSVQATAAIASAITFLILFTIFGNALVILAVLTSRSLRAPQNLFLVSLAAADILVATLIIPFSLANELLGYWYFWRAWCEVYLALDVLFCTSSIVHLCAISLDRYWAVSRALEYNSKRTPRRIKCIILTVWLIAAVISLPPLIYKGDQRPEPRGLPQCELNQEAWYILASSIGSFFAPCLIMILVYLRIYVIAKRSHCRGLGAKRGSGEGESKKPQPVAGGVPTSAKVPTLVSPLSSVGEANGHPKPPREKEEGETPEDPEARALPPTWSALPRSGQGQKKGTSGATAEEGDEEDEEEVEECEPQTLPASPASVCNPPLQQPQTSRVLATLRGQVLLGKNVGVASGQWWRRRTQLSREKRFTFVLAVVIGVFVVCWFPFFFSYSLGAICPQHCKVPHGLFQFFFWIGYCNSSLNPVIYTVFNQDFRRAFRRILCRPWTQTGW
Sequence (P22909 whole entry): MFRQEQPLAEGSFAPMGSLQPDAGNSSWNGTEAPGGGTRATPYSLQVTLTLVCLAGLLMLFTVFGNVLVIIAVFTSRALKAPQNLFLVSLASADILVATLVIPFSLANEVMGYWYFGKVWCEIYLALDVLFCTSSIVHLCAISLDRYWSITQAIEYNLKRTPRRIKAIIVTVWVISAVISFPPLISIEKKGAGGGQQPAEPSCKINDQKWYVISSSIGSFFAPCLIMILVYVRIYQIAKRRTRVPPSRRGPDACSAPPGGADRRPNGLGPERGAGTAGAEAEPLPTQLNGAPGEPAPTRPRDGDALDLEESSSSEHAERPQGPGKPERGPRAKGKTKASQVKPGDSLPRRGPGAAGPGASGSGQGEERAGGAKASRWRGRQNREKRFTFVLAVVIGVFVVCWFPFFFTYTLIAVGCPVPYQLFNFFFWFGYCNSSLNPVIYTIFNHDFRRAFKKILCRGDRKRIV
ASSAY NAME: Inhibition of [3H]clonidine binding to rat Alpha2 adrenoceptor
Assay type: protein assay
Overview of recorded Ki for various compounds
Number only, in µM; omit the unit.

These recorded examples may help you get a feel for the data.
O=S(=O)(Nc1ccc2ccccc2c1)c1ccc2c(c1)CNC(CF)C2 (centres undefined)
12
O=S(=O)(NCCCCc1ccccc1)c1ccc2c(c1)CNC(CF)C2 (centres undefined)
6.8
O=S(=O)(NC1CCc2ccccc2C1)c1ccc2c(c1)CNC(CF)C2 (centres undefined)
1.3
CCCNS(=O)(=O)c1ccc2c(c1)CNC(CF)C2 (centres undefined)
610
O=S(=O)(NCCc1ccccc1)c1ccc2c(c1)CNC(CF)C2 (centres undefined)
58

Form: compound = CCOCCCNS(=O)(=O)c1ccc2c(c1)CNC(CF)C2 (centres undefined) ; Ki = 350

Form: compound = O=S(=O)(c1ccc2c(c1)CNC(CF)C2)N1CCOCC1 (centres undefined) ; Ki = 2100

Form: compound = COCCNS(=O)(=O)c1ccc2c(c1)CNC(CF)C2 (centres undefined) ; Ki = 430
